Sourced from patent US7268146B2

Reported melting point values for the following compounds.

As a guide, the following entries are already answered.
{"compound": "Cc1cc(C)c(N2CCCc3c2nn(C)c3-c2ccccc2C(F)(F)F)c(C)c1 [Example 13a]", "melting point": "59 to 63 °C"}
{"compound": "CC/C=C(\\CCC)c1c2c(nn1C)N(c1c(C)cc(C)cc1Cl)CCC2 [Example 6a]", "melting point": "86.7 to 88.2 °C"}
{"compound": "CCCN(CCC)c1c2c(nn1C)N(c1c(C)cc(C)cc1Cl)CCC2 [Example 9a]", "melting point": "90 to 91 °C"}
{"compound": "Cc1cc(C)c(N2CCCc3c2nn(C)c3Br)c(C)c1 [Example 3]", "melting point": "94.6 to 97.9 °C"}

Please examine the following record next.
### Prompt Given the compound CCCC(COC)Nc1c2c(nn1C)N(c1c(C)cc(C)cc1C)CCC2 (centres unmarked) [Example 9ak] , write its reported melting point.
### Response 100.1 to 104.4 °C

---

Target: hCRF1 (Homo sapiens, UniProt P34998)
Construct: Celll membranes are prepared according the method of Dieterich and DeSouza (1996); endogenous in cells; host or cells: human IMR-32 neuroblastoma cells (membrane preparation)
Sequence (P34998 24-415): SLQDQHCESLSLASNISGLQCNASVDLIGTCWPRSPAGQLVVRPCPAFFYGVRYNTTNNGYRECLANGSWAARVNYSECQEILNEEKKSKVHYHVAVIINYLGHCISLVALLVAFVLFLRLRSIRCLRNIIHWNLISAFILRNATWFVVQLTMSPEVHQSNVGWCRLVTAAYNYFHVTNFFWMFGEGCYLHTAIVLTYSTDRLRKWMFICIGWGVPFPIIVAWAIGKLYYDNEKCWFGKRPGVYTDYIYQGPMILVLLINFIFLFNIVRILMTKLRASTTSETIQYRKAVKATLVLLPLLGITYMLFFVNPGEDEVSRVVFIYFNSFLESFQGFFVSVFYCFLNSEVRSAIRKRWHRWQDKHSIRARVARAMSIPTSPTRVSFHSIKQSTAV
Test: CRF Receptor Binding Assay
Conditions: CRF1 receptor binding affinity (table title); read-out: hCRF1 (pIC50) (converted)
Structures can show the parent of a compound that is named as a salt.
measurement.name: IC50 (nM)

{"compound": "Cc1cc(C)c(N2CCCc3c2nn(C)c3-c2ccccc2C(F)(F)F)c(C)c1 [Example 13a]", "measurement.name": "IC50", "unit.of.measurement": "nM", "numeric.readout": 776}

(1) Cc1cc(C)c(N2CCCc3c2nn(C)c3CN2CCc3ccccc3C2)c(C)c1 [Example 11, dihydrochloride]
(2) CCCC(CCC)Oc1c2c(nn1C)N(c1ccc(Cl)cc1Cl)CCC2 [Example 12b]
### Prompt Compare 1 and 2 by numeric IC50 and name the larger one. To answer, give the label that identifies your chosen option.
### Response 1

(A) Cc1cc(C)c(N2CCCc3c2nn(C)c3Br)c(Cl)c1 [Example 1]
(B) CCCC(CCC)c1c2c(nn1C)N(c1c(C)cc(C)cc1C)CCC2 [Example 7b]
### Prompt Hi, I'm comparing two records. Which one has the lower IC50, A or B ? To answer, give the label that identifies your chosen option.
### Response B

(P) CC/C=C(\CCC)c1c2c(nn1C)N(c1ccc(Cl)cc1Cl)CCC2 [Example 6e]
(Q) CCCC(O)(c1cccs1)c1c2c(nn1C)N(c1c(C)cc(C)cc1C)CCC2 (centres unmarked) [Example 5c]
(R) CCCN(Cc1ccco1)c1c2c(nn1C)N(c1c(C)cc(C)cc1Cl)CCC2 [Example 9c]
### Prompt Please list these in order of increasing IC50. Thank you! // list labels; follow requested order
### Response P, R, Q

---

measurement.name: melting point

{"compound": "CCCC(O)(c1nccn1CC)c1c2c(nn1C)N(c1c(C)cc(C)cc1C)CCC2 (stereo not drawn) [Example 5k]", "melting point": "94.9 to 100.9 °C"}
{"compound": "COCCC(O)(COC)c1c2c(nn1C)N(c1c(C)cc(C)cc1C)CCC2 (stereo not drawn) [Example 5g]", "melting point": "107.9 to 110.9 °C"}
{"compound": "CCCN(CCC)c1c2c(nn1C)N(c1c(C)cc(C)cc1C)CCC2 [Example 9ae]", "melting point": "88.9 to 91.5 °C"}
{"compound": "CCC(CC)Nc1c2c(nn1C)N(c1c(C)cc(C)cc1C)CCC2 [Example 9af]", "melting point": "99.3 to 104.9 °C"}

### Prompt Given the compound CCCC(c1cccs1)c1c2c(nn1C)N(c1c(C)cc(C)cc1C)CCC2 (stereo not drawn) [Example 7c] , write its reported melting point.
### Response 87.6 to 90.3 °C

### Prompt Given the compound COc1cccc(OC)c1-c1c2c(nn1C)N(c1c(C)cc(C)cc1C)CCC2 [Example 13b] , write its reported melting point.
### Response 169.9 to 172.8 °C

### Prompt Given the compound CCCC(O)(CCC)c1c2c(nn1C)N(c1c(C)cc(C)cc1C)CCCC2 [Example 5d] , write its reported melting point.
### Response 87 to 91.1 °C

### Prompt Given the compound Cc1cc(C)c(N2CCCc3c2nn(C)c3Br)c(Cl)c1 [Example 1] , write its reported melting point.
### Response 106 to 107 °C

### Prompt Given the compound Cc1cc(C)c(N2CCCc3c2nn(C)c3C2(O)CCOCC2)c(C)c1 [Example 5l] , write its reported melting point.
### Response 193 to 195.1 °C
